assay readout: melting point

smiles=Cc1cc2c(cc1F)c(C#N)c(-c1ccc(S(=O)(=O)N[C@H](C)C(F)(F)F)cn1)n2C1CCCCC1 assay_readout="melting point" reported_value="224 to 229 °C"
smiles=CCc1cc2c(cc1F)c(C#N)c(-c1ncc(S(=O)(=O)N[C@@H](C)C(F)(F)F)cc1C)n2-c1ncccn1 assay_readout="melting point" reported_value="192 to 198 °C"
smiles=Cc1ccc2c(c1)c(C#N)c(-c1ncc(S(=O)(=O)N[C@@H](C)C(F)(F)F)cn1)n2C1CCC1 assay_readout="melting point" reported_value="190 to 195 °C"
smiles=Cc1ccc2c(c1)c(C#N)c(-c1ccc(S(=O)(=O)N[C@H](C)C(F)(F)F)cn1)n2C(C)C assay_readout="melting point" reported_value="167 to 173 °C"
smiles=Cc1ccc(-n2c(-c3ccc(S(=O)(=O)NC(CF)CF)cn3)c(C#N)c3cc(F)ccc32)cc1 assay_readout="melting point" reported_value="208 to 210 °C"
smiles=CNC(=O)c1c(-c2ccc(S(=O)(=O)NC(C)(C)C)cn2)n(C2CCC2)c2cc(C)c(F)cc12 assay_readout="melting point" reported_value="215 to 218 °C"
smiles=N#Cc1c(-c2ccc(S(=O)(=O)NC3(C(F)(F)F)CC3)cn2)n(C2CCC2)c2cc(OC(F)F)ccc12 assay_readout="melting point" reported_value="182 to 187 °C"

* * *

# reported melting point; entries follow
assay readout: melting point

compound="C[C@H](NS(=O)(=O)c1ccc(-c2c(C#N)c3cc(F)ccc3n2-c2ccc(C(F)(F)F)cn2)nc1)C(F)(F)F [compound 724]" reported_value="216 to 218 °C"
compound="CCc1cc2c(cc1F)c(C(N)=O)c(-c1ccc(NS(=O)(=O)C(C)(C)C)nc1)n2C1CCCCC1 [compound 1037]" reported_value="297 to 299 °C"
compound="Cc1ccc2c(c1)c(C#N)c(-c1ccc(S(=O)(=O)NC3(C(F)(F)F)CC3)cn1)n2C1CCCC1 [compound 313]" reported_value="209 to 214 °C"
compound="COc1ccc2c(C#N)c(-c3ccc(S(=O)(=O)N[C@H](C)C(F)(F)F)cn3)n(C3CCCC3)c2c1 [compound 431]" reported_value="209 to 216 °C"
compound="CSc1cc2c(cc1F)c(C#N)c(-c1ccc(S(=O)(=O)N[C@@H](C)C(F)(F)F)cn1)n2C1CCC1 [compound 772]" reported_value="201 to 203 °C"
compound="CC(C)NS(=O)(=O)c1cnc(-c2c(C#N)c3ccc(C4CC4)cc3n2C2CCCC2)nc1 [compound 125]" reported_value="211 to 212 °C"
compound="Cc1cncc(-n2c(-c3ccc(S(=O)(=O)N[C@@H](C)C(F)(F)F)cn3)c(C#N)c3cc(F)c(C)cc32)n1 [compound 915]" reported_value="211 to 215 °C"

* * *

assay readout: melting point

molecule="Cc1ccc2c(C#N)c(-c3ccc(S(=O)(=O)N[C@H](C)C(F)(F)F)cn3)n(C3CCCCC3)c2c1 [compound 213]" assay_readout="melting point" reported_value="208 to 212 °C"
molecule="N#Cc1c(-c2ccc(S(=O)(=O)NC(CF)CF)cn2)n(-c2ccccc2)c2ccc(Cl)cc12 [compound 112]" assay_readout="melting point" reported_value="192 to 196 °C"
molecule="Cc1ccc2c(C#N)c(-c3ccc(NS(=O)(=O)C4CC4)cn3)n(C3CCCC3)c2c1 [compound 296]" assay_readout="melting point" reported_value="241 to 245 °C"
molecule="Cc1c(F)cc2c(C#N)c(-c3ccc(S(=O)(=O)NC4(C(F)(F)F)CC4)cn3)n(C3CCC3)c2c1F [compound 667]" assay_readout="melting point" reported_value="235 to 241 °C"
molecule="CC(C)NS(=O)(=O)c1cnc(-c2c(C#N)c3cc(F)ccc3n2C2CCC2)nc1 [compound 416]" assay_readout="melting point" reported_value="195 to 200 °C"
molecule="Cc1cc2c(cc1F)c(C#N)c(-c1ccc(S(=O)(=O)N[C@@H](C)C(F)(F)F)cn1)n2C1CCCC1 [compound 408]" assay_readout="melting point" reported_value="168 to 171 °C"
molecule="Cc1ccc2c(c1)c(C#N)c(-c1ccc(S(=O)(=O)N[C@@H](C)C(F)(F)F)cn1)n2-c1ccccc1 [compound 921]" assay_readout="melting point" reported_value="160 to 165 °C"
molecule="N#Cc1c(-c2ccc(S(=O)(=O)NC(CF)CF)cn2)n(C2CC2)c2cc(C3CC3)ccc12 [compound 147]" assay_readout="melting point" reported_value="226 to 228 °C"
molecule="C[C@H](NS(=O)(=O)c1ccc(-c2c(C#N)c3cc(Cl)ccc3n2-c2ncccn2)nc1)C(F)(F)F [compound 708]" assay_readout="melting point" reported_value="193 to 196 °C"
molecule="Cc1ccc2c(C#N)c(-c3ccc(S(=O)(=O)NC(CF)CF)cn3)n(C3CCCCC3)c2c1 [compound 513]" assay_readout="melting point" reported_value="195 to 203 °C"
molecule="Cc1ccc2c(C#N)c(-c3ncc(S(=O)(=O)N[C@@H](C)C(F)(F)F)cn3)n(C3CCC3)c2c1 [compound 325]" assay_readout="melting point" reported_value="242 to 243 °C"
molecule="CC(C)NS(=O)(=O)c1cnc(-c2c(C(N)=O)c3cc(Cl)ccc3n2C2CCC2)nc1 [compound 745]" assay_readout="melting point" reported_value="245 to 247 °C"
molecule="C[C@H](NS(=O)(=O)c1ccc(-c2c(C#N)c3ccc(OC(F)F)cc3n2-c2ncccn2)nc1)C(F)(F)F [compound 512]" assay_readout="melting point" reported_value="186 to 189 °C"
molecule="Cc1cc2c(C#N)c(-c3ccc(S(=O)(=O)NC(CF)CF)cn3)n(C3CCCC3)c2cc1F [compound 482]" assay_readout="melting point" reported_value="207 to 211 °C"
molecule="COc1ccc2c(c1)c(C#N)c(-c1ncc(S(=O)(=O)N[C@@H](C)C3CC3)cn1)n2C1CCC1 [compound 570]" assay_readout="melting point" reported_value="182 to 183 °C"

* * *

# reported melting point; entries follow
assay readout: melting point

smiles=C[C@H](NS(=O)(=O)c1ccc(-c2c(C#N)c3ccc(OC(F)(F)F)cc3n2C2CCC2)nc1)C(F)(F)F assay_readout="melting point" reported_value="165 to 175 °C"
smiles=Cc1cc2c(cc1F)c(C(N)=O)c(-c1ccc(S(=O)(=O)N[C@@H](C)C(F)(F)F)cn1)n2-c1ccccn1 assay_readout="melting point" reported_value="142 to 148 °C"
smiles=CCc1cc(F)c2c(C(N)=O)c(-c3ccc(NS(=O)(=O)C(C)(C)C)nc3)n(C3CCC3)c2c1 assay_readout="melting point" reported_value="263 to 268 °C"
smiles=C[C@H](NS(=O)(=O)c1ccc(-c2c(C#N)c3ccc(CC(F)F)cc3n2C2CCC2)nc1)C(F)(F)F assay_readout="melting point" reported_value="172 to 174 °C"
smiles=C[C@H](NS(=O)(=O)c1ccc(-c2c(C#N)c3cc(Cl)ccc3n2C2CCCC2)nc1)C(F)(F)F assay_readout="melting point" reported_value="207 to 214 °C"
smiles=CCc1cc(F)c2c(C(N)=O)c(-c3ccc(NS(=O)(=O)C(C)(C)C)cn3)n(C3CCC3)c2c1 assay_readout="melting point" reported_value="259 to 263 °C"
smiles=Cc1ccc2c(c1)c(C#N)c(-c1ncc(S(=O)(=O)N[C@@H](C)C(F)(F)F)cn1)n2C1CCCC1 assay_readout="melting point" reported_value="180 to 185 °C"
smiles=C[C@H](NS(=O)(=O)c1ccc(-c2c(C#N)c3cc(F)ccc3n2C2CCCCC2)nc1)C1CC1 assay_readout="melting point" reported_value="161 to 163 °C"
smiles=Cc1cc2c(cc1F)c(C#N)c(-c1ccc(S(=O)(=O)N[C@H](C)C(F)(F)F)cn1)n2C1CCC1 assay_readout="melting point" reported_value="211 to 214 °C"
smiles=CC(C)NS(=O)(=O)c1cnc(-c2c(C#N)c3cc(F)ccc3n2CC2CC2)nc1 assay_readout="melting point" reported_value="215 to 220 °C"
smiles=CC(C)NS(=O)(=O)c1cnc(-c2c(C#N)c3ccc(F)cc3n2C2CCC2)nc1 assay_readout="melting point" reported_value="193 to 195 °C"
smiles=N#Cc1c(-c2ncc(S(=O)(=O)NC(CF)CF)cn2)n(C2CCCCC2)c2ccc(F)cc12 assay_readout="melting point" reported_value="250 to 253 °C"
smiles=Cc1c(F)cc2c(C#N)c(-c3ccc(S(=O)(=O)NC4(C(F)(F)F)CC4)cn3)n(C3CCCC3)c2c1F assay_readout="melting point" reported_value="241 to 246 °C"
smiles=C[C@H](NS(=O)(=O)c1ccc(-c2c(C#N)c3ccc(F)cc3n2C2CCCC2)nc1)C(F)(F)F assay_readout="melting point" reported_value="132 to 133 °C"
smiles=C[C@H](NS(=O)(=O)c1ccc(-c2c(C#N)c3cc(Cl)ccc3n2-c2ccccn2)nc1)C1CC1 assay_readout="melting point" reported_value="136 to 139 °C"
